Data origin: ChEMBL document CHEMBL3232757

Measured fold change (FC) accompanies every entry in the list below.
- assay system: Heat shock 70 kDa protein 6 (Homo sapiens)
- run description: Induction of […] (unknown origin)-mediated heat shock response expressed in human 293T cells coexpressing GFP assessed as heat shock index after overnight incubation by luciferase reporter gene assay relative to control
- Assay type: cell-based
Please state the value as a number alone, without comment.

- CC1=C(CO)C(=O)O[C@@H]([C@@H](C)[C@H]2CC[C@H]3[C@@H]4C[C@H]5O[C@]56[C@@H](O)C=CC(=O)[C@]6(C)[C@H]4C[C@@H](O)[C@]23C)C1: 0

Inquiry: Entry "CC1=C(CO)C(=O)O[C@@H]([C@@H](C)[C@H]2CC[C@H]3[C@@H]4C[C@H]5O[C@]56[C@@H](O)[C@@H](OS(=O)(=O)O)CC(=O)[C@]6(C)[C@H]4CC[C@]23C)C1" has what fold change (FC)?
Reply text: 0

Inquiry: Further, for "CC(=O)OCC1=C(C)C[C@H]([C@@H](C)[C@H]2CC[C@H]3[C@@H]4C[C@H]5O[C@]56[C@@H](O)C=CC(=O)[C@]6(C)[C@H]4CC[C@]23C)OC1=O" ?
Reply text: 3.81

###

- assay system: UniProtKB P17066
- Sequence (P17066 whole entry): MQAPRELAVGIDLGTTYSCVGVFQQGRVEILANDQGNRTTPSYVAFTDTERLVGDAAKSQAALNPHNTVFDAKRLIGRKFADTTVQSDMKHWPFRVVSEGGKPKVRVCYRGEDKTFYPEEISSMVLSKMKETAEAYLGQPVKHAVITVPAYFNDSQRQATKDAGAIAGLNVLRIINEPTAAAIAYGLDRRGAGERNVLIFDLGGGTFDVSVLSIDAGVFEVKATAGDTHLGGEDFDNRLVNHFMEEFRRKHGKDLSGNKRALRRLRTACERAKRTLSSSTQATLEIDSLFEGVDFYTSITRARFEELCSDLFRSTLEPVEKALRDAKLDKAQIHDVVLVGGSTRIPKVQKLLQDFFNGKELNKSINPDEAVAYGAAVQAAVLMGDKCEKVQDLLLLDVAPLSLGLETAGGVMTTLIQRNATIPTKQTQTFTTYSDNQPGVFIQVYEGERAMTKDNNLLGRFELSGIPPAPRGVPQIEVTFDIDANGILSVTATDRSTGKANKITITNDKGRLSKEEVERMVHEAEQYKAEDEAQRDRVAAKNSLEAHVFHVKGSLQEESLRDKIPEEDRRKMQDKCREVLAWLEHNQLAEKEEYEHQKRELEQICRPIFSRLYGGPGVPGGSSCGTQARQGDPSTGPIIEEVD
- run description: Induction of […] (unknown origin)-mediated heat shock response expressed in human 293T cells coexpressing GFP assessed as heat shock index after overnight incubation by luciferase reporter gene assay relative to control
- Format: cell-based
Assign class by fold change (FC): not lower than 0.2 means fulfilled; lower than 0.2 means not fulfilled.

Recorded results for 5 compounds are shown here.
- CC(=O)OCC1=C(C)C[C@H]([C@@H](C)[C@H]2CC[C@H]3[C@@H]4C[C@H]5O[C@]56[C@H](O)C=CC(=O)[C@]6(C)[C@H]4CC[C@]23C)OC1=O: fulfilled
- CC1=C(CO)C(=O)O[C@@H]([C@@H](C)[C@H]2CC[C@H]3[C@@H]4C[C@H]5O[C@]56[C@H](O)C=CC(=O)[C@]6(C)[C@H]4CC[C@]23C)C1: fulfilled
- CC1=C(CO)C(=O)O[C@@H]([C@@H](C)[C@H]2CC[C@H]3[C@@H]4CC=C5C[C@@H](O)C[C@H](O)[C@]5(C)[C@H]4CC[C@]23C)C1: not fulfilled
- CC(=O)O[C@H]1C=CC(=O)[C@]2(C)[C@H]3CC[C@]4(C)[C@@H]([C@H](C)[C@H]5CC(C)=C(CO)C(=O)O5)CC[C@H]4[C@@H]3C[C@H]3O[C@]132: fulfilled
- CC1=C(C)C(=O)O[C@@H]([C@](C)(O)[C@H]2CC[C@H]3[C@@H]4[C@@H]5O[C@@H]5[C@@]5(O)CC=CC(=O)[C@]5(C)[C@H]4CC[C@]23C)C1 [WITHANOLIDE A]: not fulfilled

Inquiry: # check: fold change (FC) of "CC(=O)OCC1=C(C)C[C@H]([C@@H](C)[C@H]2C[C@@H](OC(C)=O)[C@H]3[C@@H]4C[C@H]5O[C@]56[C@@H](OC(C)=O)C=CC(=O)[C@]6(C)[C@H]4CC[C@@]32C)OC1=O" is greater than or equal to 0.2
Reply text: fulfilled

Inquiry: Ok, now CC1=C(CO)C(=O)O[C@@H]([C@@H](C)[C@H]2CC[C@H]3[C@@H]4C[C@H]5O[C@]56[C@@H](O)[C@@H](O)CC(=O)[C@]6(C)[C@H]4CC[C@]23C)C1 [VISCOSALACTONE B]
Reply text: not fulfilled

Inquiry: Then this compound: "CC(=O)OCC1=C(C)C[C@H]([C@@H](C)[C@H]2CC[C@H]3[C@@H]4[C@@H]5O[C@@H]5[C@@]5(O)CC=CC(=O)[C@]5(C)[C@H]4CC[C@]23C)OC1=O"
Reply text: not fulfilled

###

- assay system: Heat shock 70 kDa protein 6 (Homo sapiens)
- run description: Induction of […] (unknown origin)-mediated heat shock response expressed in human 293T cells coexpressing GFP assessed as heat shock index after overnight incubation by luciferase reporter gene assay relative to control
- Type: cell-based
Peptide text beside a SMILES is read from it. * marks the point of attachment. Cbz = O=C(OCc1ccccc1)*
value type: fold change (FC)
Lab note: jot the number down without any unit.

- CC(=O)O[C@H]1C=CC(=O)[C@]2(C)[C@H]3CC[C@]4(C)[C@@H]([C@H](C)[C@H]5CC(C)=C(C)C(=O)O5)CC[C@H]4[C@@H]3C[C@H]3O[C@]132: 1.53
- CC(=O)O[C@@H]1C=CC(=O)[C@]2(C)[C@H]3CC[C@]4(C)[C@@H]([C@H](C)[C@H]5CC(C)=C(CO)C(=O)O5)CC[C@H]4[C@@H]3C[C@H]3O[C@]132: 1.64
- CC(=O)OCC1=C(C)C[C@H]([C@@H](C)[C@H]2CC[C@H]3[C@@H]4C[C@H]5O[C@]56[C@@H](OC(C)=O)C=CC(=O)[C@]6(C)[C@H]4C[C@@H](OC(C)=O)[C@]23C)OC1=O: 3.31
- CC1=C(CO)C(=O)O[C@@H]([C@@H](C)[C@H]2CC[C@H]3[C@@H]4C[C@H]5O[C@]56[C@@H](O)[C@H](n5ccc(=O)[nH]c5=O)CC(=O)[C@]6(C)[C@H]4CC[C@]23C)C1: 0.59
- CC(=O)OCC1=C(C)C[C@H]([C@@H](C)[C@H]2CC[C@H]3[C@@H]4CC=C5C(OC(C)=O)C=CC(=O)[C@]5(C)[C@H]4CC[C@]23C)OC1=O (single isomer, unassigned): 0.9
- CC1=C(CO)C(=O)OC([C@@H](C)C2CCC3C4C(CC[C@@]32C)[C@@]2(C)C(=O)C=CC[C@]2(O)[C@H]2O[C@@H]42)C1 (some centres undefined): 0
- CC(C)C[C@@H](C=O)NC(=O)[C@H](CC(C)C)NC(=O)[C@H](CC(C)C)NC(=O)OCc1ccccc1 [MG-132] (Cbz-Leu-Leu-Leu-aldehyde): 0.71
- CC1=C(C)C(=O)O[C@@H]([C@@H](C)[C@H]2CC[C@H]3[C@@H]4C[C@H]5O[C@]56[C@@H](O)C=CC(=O)[C@]6(C)[C@H]4CC[C@]23C)C1: 0.52
- CC1=C(CO)C(=O)O[C@@H]([C@@H](C)[C@H]2CC[C@H]3[C@@H]4C[C@@H](O)[C@@]5(O)CC=CC(=O)[C@]5(C)[C@H]4CC[C@]23C)C1 [JABOROSALACTONE D]: 0
- CC1=C(CO)C(=O)O[C@@H]([C@@H](C)[C@H]2CC[C@H]3[C@@H]4C[C@H]5O[C@]56[C@@H](O)CCC(=O)[C@]6(C)[C@H]4CC[C@]23C)C1: 0

Please examine the following record next.
Inquiry: Form field: fold change (FC) recorded for "CC1=C(CO)C(=O)O[C@@H]([C@@H](C)[C@H]2CC[C@H]3[C@@H]4C[C@H]5O[C@]56[C@@H](O)[C@@H](N=[N+]=[N-])CC(=O)[C@]6(C)[C@H]4CC[C@]23C)C1" with Heat shock 70 kDa protein 6 (Homo sapiens) (enter value)
Reply text: 0

###

- run description: Cytotoxicity against human CHP100 cells assessed as inhibition of cell survival after 24 hrs by MTT assay
- Type: functional, cell-based
- experimental parameters: CHP100, 24 h
The entries below come with measured pIC50 values attached.
Scale explanation: pIC50 corresponds to minus log10 of a concentration expressed in moles per litre.

In the examples that follow, each entry is paired with its recorded pIC50.
• CC1=C(CO)C(=O)O[C@@H]([C@@H](C)[C@H]2CC[C@H]3[C@@H]4C[C@H]5O[C@]56[C@H](O)C=CC(=O)[C@]6(C)[C@H]4CC[C@]23C)C1 = 6.03
• CC(=O)OCC1=C(C)C[C@H]([C@@H](C)[C@H]2CC[C@H]3[C@@H]4C[C@H]5O[C@]56[C@@H](O)[C@@H](OS(=O)(=O)O)CC(=O)[C@]6(C)[C@H]4CC[C@]23C)OC1=O = 6.14
• CC(=O)OCC1=C(C)C[C@H]([C@@H](C)[C@H]2CC[C@H]3[C@@H]4C[C@H]5O[C@]56[C@@H](OC(C)=O)[C@@H](OS(=O)(=O)O)CC(=O)[C@]6(C)[C@H]4CC[C@]23C)OC1=O = 6.41
• CC(=O)OCC1=C(C)C[C@H]([C@@H](C)[C@H]2CC[C@H]3[C@@H]4CC=C5C(OC(C)=O)C=CC(=O)[C@]5(C)[C@H]4CC[C@]23C)OC1=O (single isomer, unassigned) = 6.28

Inquiry: # lookup: pIC50 of "CC(=O)OCC1=C(C)C[C@H]([C@@H](C)[C@H]2C[C@@H](OC(C)=O)[C@H]3[C@@H]4C[C@H]5O[C@]56[C@@H](OC(C)=O)C=CC(=O)[C@]6(C)[C@H]4CC[C@@]32C)OC1=O"
Reply text: 6.51

Inquiry: Note, next up: "CC(=O)O[C@@H]1C=CC(=O)[C@]2(C)[C@H]3CC[C@]4(C)[C@@H]([C@H](C)[C@H]5CC(C)=C(CO)C(=O)O5)CC[C@H]4[C@@H]3C[C@H]3O[C@]132"
Reply text: 6.08

Inquiry: And for "CC(=O)O[C@H]1C=CC(=O)[C@]2(C)[C@H]3CC[C@]4(C)[C@@H]([C@H](C)[C@H]5CC(C)=C(CO)C(=O)O5)CC[C@H]4[C@@H]3C[C@H]3O[C@]132" ?
Reply text: 6.11

Inquiry: Same question for "CC(=O)OCC1=C(C)C[C@H]([C@@H](C)[C@H]2CC[C@H]3[C@@H]4C[C@H]5O[C@]56[C@@H](O)C=CC(=O)[C@]6(C)[C@H]4CC[C@]23C)OC1=O" please.
Reply text: 6.64

Inquiry: Please do the same for "CC(=O)OCC1=C(C)C[C@H]([C@@H](C)[C@H]2CC[C@H]3[C@@H]4C[C@H]5O[C@]56[C@H](O)C=CC(=O)[C@]6(C)[C@H]4CC[C@]23C)OC1=O" as well.
Reply text: 6.66

Inquiry: Now consider "CC(=O)OCC1=C(C)C[C@H]([C@@H](C)[C@H]2CC[C@H]3[C@@H]4C[C@H]5O[C@]56C(=O)C=CC(=O)[C@]6(C)[C@H]4CC[C@]23C)OC1=O" .
Reply text: 6.41

Inquiry: And for "CC1=C(CO)C(=O)O[C@@H]([C@@H](C)[C@H]2CC[C@H]3[C@@H]4C[C@H]5O[C@]56[C@@H](O)[C@H](n5ccc(=O)[nH]c5=O)CC(=O)[C@]6(C)[C@H]4CC[C@]23C)C1" ?
Reply text: 6.02

Inquiry: Would you mind doing "CC1=C(C)C(=O)O[C@@H]([C@@H](C)[C@H]2CC[C@H]3[C@@H]4C[C@H]5O[C@]56[C@@H](O)C=CC(=O)[C@]6(C)[C@H]4CC[C@]23C)C1" as well?
Reply text: 6.19
